Where these numbers come from: ChEMBL document CHEMBL1149933

System: Staphylococcus aureus
Assay: Inhibitory effect against methicillin resistant Staphylococcus aureus (A 27621), expressed as minimum inhibitory concentration
Assay type: functional
Task for the reader: assign each of the following compounds its reported MIC.
Give bare numbers, in µg/mL.

Answered examples (5):
>  <compound>
O=C(CSc1cc(Cl)ccc1Cl)N[C@@H]1C(=O)N2C(C(=O)O)=C(COC(=O)c3ccccc3)CSC12 (some centres undefined)

>  <MIC, µg/mL>
1

$$$$
>  <compound>
CC(=O)Nc1ccc(C(=O)OCC2=C(C(=O)O)N3C(=O)[C@@H](NC(=O)CSc4cc(Cl)ccc4Cl)C3SC2)cc1 (some centres undefined)

>  <MIC, µg/mL>
1

$$$$
>  <compound>
C[n+]1cccc(C(=O)OCC2=C(C(=O)[O-])N3C(=O)[C@@H](NC(=O)CSc4cc(Cl)ccc4Cl)C3SC2)c1 (some centres undefined)

>  <MIC, µg/mL>
64

$$$$
>  <compound>
O=C(CSc1cc(Cl)ccc1Cl)N[C@@H]1C(=O)N2C(C(=O)O)=C(COC(=O)c3cccnc3)CSC12 (some centres undefined)

>  <MIC, µg/mL>
4

$$$$
>  <compound>
C[n+]1ccc(C(=O)OCC2=C(C(=O)[O-])N3C(=O)[C@@H](NC(=O)CSc4cc(Cl)ccc4Cl)C3SC2)cc1 (some centres undefined)

>  <MIC, µg/mL>
32

$$$$

# batch size: 8; output MIC per entry
1. COc1ccc(C(=O)OCC2=C(C(=O)O)N3C(=O)[C@@H](NC(=O)CSc4cc(Cl)ccc4Cl)C3SC2)cc1 (some centres undefined)
2. Cc1ccc(C(=O)OCC2=C(C(=O)O)N3C(=O)[C@@H](NC(=O)CSc4cc(Cl)ccc4Cl)C3SC2)cc1 (some centres undefined)
3. O=C(CSc1cc(Cl)ccc1Cl)N[C@@H]1C(=O)N2C(C(=O)O)=C(COC(=O)c3ccncc3)CSC12 (some centres undefined)
4. N#Cc1ccc(C(=O)OCC2=C(C(=O)O)N3C(=O)[C@@H](NC(=O)CSc4cc(Cl)ccc4Cl)C3SC2)cc1 (some centres undefined)
5. CC(=O)Oc1ccc(C(=O)OCC2=C(C(=O)O)N3C(=O)[C@@H](NC(=O)CSc4cc(Cl)ccc4Cl)C3SC2)cc1 (some centres undefined)
6. O=C(CSc1cc(Cl)ccc1Cl)N[C@@H]1C(=O)N2C(C(=O)O)=C(COC(=O)c3ccc(O)cc3)CSC12 (some centres undefined)
7. CN(C)c1ccc(C(=O)OCC2=C(C(=O)O)N3C(=O)[C@@H](NC(=O)CSc4cc(Cl)ccc4Cl)C3SC2)cc1 (some centres undefined)
8. CN[C@H](CC(C)C)C(=O)N[C@H]1C(=O)N[C@@H](CC(N)=O)C(=O)N[C@H]2C(=O)N[C@H]3C(=O)N[C@H](C(=O)N[C@H](C(=O)O)c4cc(O)cc(O)c4-c4cc3ccc4O)[C@H](O)c3ccc(c(Cl)c3)Oc3cc2cc(c3O[C@@H]2O[C@H](CO)[C@@H](O)[C@H](O)[C@H]2O[C@H]2C[C@](C)(N)[C@H](O)[C@H](C)O2)Oc2ccc(cc2Cl)[C@H]1O

[0.5, 0.25, 4, 0.5, 0.125, 0.5, 0.25, 0.25]

Using the record for O=C(CSc1cc(Cl)ccc1Cl)N[C@@H]1C(=O)N2C(C(=O)O)=C(COC(=O)c3ccc([N+](=O)[O-])cc3)CSC12 (some centres undefined) , report its MIC.
2
